experiment: chemical genetic growth profiling, strain panel (AID 1159580);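 further: tested at 20 µM; growth read once vehicle control cultures reached saturation at 30 °C; 1 = growth at the plate median or of vehicle wells; lower values mean less growth of the strain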; settings: S. cerevisiae deletion strains, growth OD, locus YPL256C, strain CLN2
Among all 5,500 compounds or so, about 2,000 (36%) were called active. Not shown: some 18% with an inconclusive outcome. No stated cut-off is given here; in the data, active means normalized growth mostly below about 0.91 (no sharp cut-off); inconclusive means no clear call, values can overlap the other calls; inactive means mostly above about 0.92. This is one part of the list.
Could you please pick one outcome from this set? class 1 = active, class 0 = inactive

Observe how each entry below is paired with its result.
> print(dat)
                                   compound  classification
1          O=C(NCCc1ccncc1)c1ccc(Cl)c(Cl)c1         class 0
2  COC(=O)Nc1nc2ccc(S(=O)c3ccccc3)cc2[nH]1 (stereo unspecified)         class 0
3  CC1(C)CC[C@]2(C)CC[C@]3(C)C(=CCC4[C@@]5(C)CC[C@H](O)C(C)(C)C5CC[C@]43C)C2C1 (stereo partly specified)         class 0
4  O=C(NCCNc1ncc(Cl)cc1C(F)(F)F)C(F)(F)Sc1ccccc1         class 1
5  CC(C)(Oc1ccc(CCNC(=O)c2ccc(Cl)cc2)cc1)C(=O)O         class 0
6  CC(C)(C#N)O[C@@H]1O[C@H](CO)[C@@H](O)[C@H](O)[C@H]1O         class 0
7            C[N+](C)(C)C[C@H](O)CC(=O)[O-]         class 0
8  Cc1ccc(C)c(CSc2nc(C3CCCCC3)c(C#N)c(=O)[nH]2)c1         class 0

Name the outcome recorded for O=C(NCCNc1ncc(C(F)(F)F)cc1Cl)C(F)(F)Sc1ccccc1 in the assay. class 0

Look up the recorded call for NNC(=O)c1ccncc1 in this test. class 0

I'd appreciate the recorded outcome for CC(C)(Sc1cc(C(C)(C)C)c(O)c(C(C)(C)C)c1)Sc1cc(C(C)(C)C)c(O)c(C(C)(C)C)c1 from this test. class 0

----------
assay: chemical genetic growth profiling, strain panel (AID 1159580); conditions: S. cerevisiae deletion strains, growth OD, locus YCL061C, strain MRC1 (second series), active compounds read low
In all, about 5,500 compounds went through this assay and about 2,000 (36%) were called active. Roughly 18% stayed inconclusive and do not appear here. The list shows a part of the results.
measurement kind: normalized growth
Format: numeric value only, no unit, no commentary.

> print(dat)
                                   molecule   measurement.kind  result
1  OC(CCN1CCCCC1)(c1ccccc1)C1CCCCC1 (configuration not stated)  normalized growth   0.981
2                         N=C(N)c1ccc(N)cc1  normalized growth   0.998
3  Nc1c2c(nc3ccccc13)CCCC2O (configuration not stated)  normalized growth    1.01
4          N[C@@H](Cc1c[nH]c2ccccc12)C(=O)O  normalized growth       1
5  CCN(CC)c1ncnc2c1ncn2[C@@H]1O[C@H](COP(=O)(O)OP(=O)(O)C(Br)(Br)P(=O)(O)O)[C@@H](O)[C@H]1O  normalized growth       1

normalized growth for CC(N)C1CCC(C(=O)Nc2ccncc2)CC1 (configuration not stated) ? 1

----------
experiment: chemical genetic growth profiling, strain panel (AID 1159580); settings: S. cerevisiae deletion strains, growth OD, locus YOR136W, strain idh2, active compounds read low
In all, about 5,500 compounds went through this assay and about 2,000 (36%) were called active. Inconclusive results (about 18%) are left out. This is one part of the list.
measurement kind: normalized growth
I only need the number, thanks.

> print(dat)
                                   compound   measurement.kind  result
1  COC(=O)C[C@H]1C(C)(C)C2(O)OC34CC2C(=O)[C@]1(C)C3CC[C@]1(C)C4=CC(=O)O[C@H]1c1ccoc1 (some centres not stated)  normalized growth    1.01
2  Nc1ccccc1C(=O)CC(N)C(=O)O (configuration not stated)  normalized growth   0.972
3  OC(CCN1CCCCC1)(c1ccccc1)C1CCCCC1 (configuration not stated)  normalized growth       1
4          Cc1ccnc(NS(=O)(=O)c2ccc(N)cc2)n1  normalized growth    1.01
5  COc1cc(N)c(Cl)cc1C(=O)NC1CCN(Cc2ccccc2)CC1  normalized growth   0.996

Param item = OC(CCN1CCCC1)(c1ccccc1)C1CCCCC1 (configuration not stated) ; retrieve measured normalized growth. 0.982

# normalized growth lookup, item NCCC(=O)N[C@@H](Cc1cnc[nH]1)C(=O)O 0.99

----------
test: chemical genetic growth profiling, strain panel (AID 1159580);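 further: tested at 20 µM; growth read once vehicle control cultures reached saturation at 30 °C; 1 = growth at the plate median or of vehicle wells; lower values mean less growth of the strain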; conditions: S. cerevisiae deletion strains, growth OD, locus YMR277W, strain FCP1
In all, about 5,500 compounds went through this assay and about 2,000 (36%) were called active. Roughly 18% stayed inconclusive and do not appear here. No stated cut-off is given here; in the data, active means normalized growth mostly below about 0.91 (no sharp cut-off); inconclusive means no clear call, values can overlap the other calls; inactive means mostly above about 0.92. The list shows a part of the results.
Respond only with the outcome that fits, drawn from active, inactive

Examples from the recorded data:
> print(dat)
                                   compound  classification
1  CC(C)(C)C(=O)N(Cc1cccnc1)Cc1ccc(Cl)cc1Cl        inactive
2  COc1cccc(NC(=S)NC2CC(C)CC(C)(C)C2)c1 (stereo unspecified)        inactive
3  O=S(=O)(c1ccc(Cl)cc1)N(Cc1cccnc1)Cc1ccc(Cl)cc1Cl        inactive
4             Nc1ccc(Sc2ccccc2)nc1Sc1ccccc1        inactive
5  Cc1oc(C(C)(C)C)cc1-c1cc(N)n(-c2ccc(I)cc2)n1          active

Now let's try a different one.
Record request — test call for S=C(NNC(=S)NC1CC2C=CC1C2)Nc1ccc(Br)c(Cl)c1 (stereo unspecified) inactive

----------
assay: chemical genetic growth profiling, strain panel (AID 1159580);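 further: tested at 20 µM; growth read once vehicle control cultures reached saturation at 30 °C; 1 = growth at the plate median or of vehicle wells; lower values mean less growth of the strain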; details: S. cerevisiae deletion strains, growth OD, locus YMR263W, strain SAP30, active compounds read low
Hit rate of the full screen: of about 5,500 compounds, about 2,000 (36%) were called active. Not shown: some 18% with an inconclusive outcome. The list shows a part of the results.
measurement kind: normalized growth
Please reply with the number alone, leaving off any unit.

In the examples that follow, each entry is paired with its recorded normalized growth.
compound	measurement kind	result
NC(N)=[N+]1CCc2ccccc2C1	normalized growth	0.988
Nc1ccc(-n2nc(C(F)(F)F)cc2C(F)(F)F)cc1	normalized growth	0.963
O=C(O)CCCCCC[C@H]1C(=O)NC(=O)N1CC[C@@H](O)C1CCCCC1	normalized growth	0.993
Cc1ccc(-c2cc(C(F)(F)F)nn2-c2ccc(S(N)(=O)=O)cc2)cc1	normalized growth	1.01
C[C@@H]1CC[C@]2(C(=O)O)CC[C@]3(C)C(=CCC4[C@@]5(C)CC[C@H](O)C(C)(C)C5CC[C@]43C)C2[C@H]1C (stereo partly drawn)	normalized growth	1.04
NNc1nncc2ccccc12	normalized growth	1
Cc1noc(N)c1C(N)=S	normalized growth	1
FC(F)(F)c1cnc(N2CCN(C(=S)Nc3ccccc3)CC2)c(Cl)c1	normalized growth	0.982

May I ask what normalized growth has been recorded for O=C(Nc1cc(C(=O)Nc2ccc(S(=O)(=O)O)cc2S(=O)(=O)O)cc(C(=O)Nc2ccc(S(=O)(=O)O)cc2S(=O)(=O)O)c1)Nc1cc(C(=O)Nc2ccc(S(=O)(=O)O)cc2S(=O)(=O)O)cc(C(=O)Nc2ccc(S(=O)(=O)O)cc2S(=O)(=O)O)c1 ? 0.99

Which value of normalized growth has been reported for COc1ccc(Oc2cc(C)nc3ccccc23)cc1 in the records? 1.02

May I ask what normalized growth has been recorded for CC(OCc1ccccc1)C(NC(=O)OC(C)(C)C)C(N)=O (stereo not drawn) ? 0.976

Any idea what its normalized growth is? The compound is CCN(CC)c1ccc(NC(=O)c2c(F)cccc2F)c(N(CC)CC)n1 1

Report normalized growth for Cc1cn([C@H]2C[C@H](N=[N+]=[N-])[C@@H](CO)O2)c(=O)[nH]c1=O please. 1.01

Which normalized growth value is on record for O=C(O)C1CCCN(CCC=C(c2ccccc2)c2ccccc2)C1 (stereo not drawn) ? 1.01

Any idea what normalized growth was measured for COC(=O)Nc1nc2ccc(Sc3ccccc3)cc2[nH]1 ? 0.973

Entry under review: O=C(O)/C=C/C(=O)Nc1ccc(-n2nc(C(F)(F)F)cc2C(F)(F)F)cc1 . Reported normalized growth? 1.02

Need normalized growth, item O=C(Nc1cc2cc([N+](=O)[O-])ccc2oc1=O)c1c(F)cccc1F 0.936

Fill blank: measured normalized growth of the compound COc1ccc2c3c([nH]c2c1)C(C)=NCC3 is ____. 1.01

Looking for the measured normalized growth of COC(=O)Nc1nc2ccc(C(=O)c3ccccc3)cc2[nH]1 , can you help? 0.999

Any idea what normalized growth was measured for Cc1ccc2[nH]c3c(c2c1)CCCC3 ? 0.867

----------
assay: chemical genetic growth profiling, strain panel (AID 1159580);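 further: tested at 20 µM; growth read once vehicle control cultures reached saturation at 30 °C; 1 = growth at the plate median or of vehicle wells; lower values mean less growth of the strain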; details: S. cerevisiae deletion strains, growth OD, locus YPL078C, strain atp4, active compounds read low
About 2,000 (36%) of roughly 5,500 compounds were called active. About 18% were inconclusive and are not listed. The list shows a part of the results.
# normalized growth values compiled below
Just the number, please.

molecule	normalized growth
COC(=O)Nc1nc2ccc(S(=O)c3ccccc3)cc2[nH]1 (configuration not stated)	0.963
C#C[C@]1(O)CCC2C3CCC4=CC(=O)CC[C@@H]4C3CC[C@@]21CC (some centres not stated)	0.996

Find the recorded normalized growth belonging to Cc1cc(O)ccc1Cl and report it. 0.938

Quick one: normalized growth of CC(C)=CCCC1(C)C=Cc2c(O)c3c(c(CC=C(C)C)c2O1)OC12C(=CCCC1C(C)(C)O[C@@]2(C/C=C(\C)C(=O)O)C(=O)O)C3=O (some centres not stated) ? 0.897

Any idea what normalized growth was measured for COc1cccc2c1C(=O)c1c(O)c3c(c(O)c1C2=O)C[C@@](O)(C(C)=O)C[C@@H]3O[C@H]1C[C@H](N)[C@H](O)[C@H](C)O1 ? 0.891

Need normalized growth of C[C@@H]1CC[C@H]2[C@@H](C)C(O)O[C@@H]3O[C@@]4(C)CC[C@@H]1[C@]32OO4 (some centres not stated) , thanks. 0.248

Quick one: normalized growth of N#CC(O[C@@H]1O[C@H](CO[C@@H]2O[C@H](CO)[C@@H](O)[C@H](O)[C@H]2O)[C@@H](O)[C@H](O)[C@H]1O)c1ccccc1 (some centres not stated) ? 0.984

Reported normalized growth for COc1cc(C(=O)O[C@H]2CC[C@@]3(C)[C@@H]4CC[C@H]5[C@]6(O)C[C@H](O)[C@@]7(O)[C@@H](CN8C[C@@H](C)CC[C@H]8[C@@]7(C)O)[C@]6(O)C[C@@]53O[C@]24O)cc(OC)c1OC : what is it? 0.998

Query: normalized growth; subject: CC1(C)CCC2(C(=O)O)CCC3(C)C(=CCC4C5(C)CCC(O)C(C)(C)C5C(O)CC43C)C2C1 (configuration not stated) 1.01
